Entries annotated with measured IC50
system.under.test: Excitatory amino acid transporter 3 (Homo sapiens, UniProt P43005)
Sequence (P43005 whole entry): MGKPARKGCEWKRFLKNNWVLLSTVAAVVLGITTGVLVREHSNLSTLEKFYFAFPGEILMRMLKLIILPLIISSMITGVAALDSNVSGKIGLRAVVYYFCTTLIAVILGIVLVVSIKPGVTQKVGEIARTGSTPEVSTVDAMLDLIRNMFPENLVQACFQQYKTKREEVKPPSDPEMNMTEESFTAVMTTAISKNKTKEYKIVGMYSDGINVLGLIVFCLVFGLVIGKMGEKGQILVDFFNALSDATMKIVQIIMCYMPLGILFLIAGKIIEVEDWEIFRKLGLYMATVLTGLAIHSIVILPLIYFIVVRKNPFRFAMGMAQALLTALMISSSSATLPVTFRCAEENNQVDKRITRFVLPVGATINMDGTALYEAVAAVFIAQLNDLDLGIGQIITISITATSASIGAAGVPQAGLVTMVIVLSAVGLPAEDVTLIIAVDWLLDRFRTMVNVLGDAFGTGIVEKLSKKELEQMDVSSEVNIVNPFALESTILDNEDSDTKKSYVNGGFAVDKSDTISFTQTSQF
assay.method.text: Displacement of [3H]D-Asp from human EAAT3 receptor expressed in HEK293 cells
parameter: IC50

[[record]]
molecule = "N#CC1=C(N)OC2=C(C(=O)CC(c3ccccc3)C2)C1c1cccnc1 (stereo not given)"
measurement = "> 316 µM"

[[record]]
molecule = "N#CC1=C(N)OC2=C(C(=O)CC(c3ccccc3)C2)C1c1ccc2c(c1)OCO2 (stereo not given)"
measurement = "> 316 µM"

[[record]]
molecule = "COc1ccc(C2C(C#N)=C(N)OC3=C2C(=O)CC(c2ccccc2)C3)cc1 (stereo not given)"
measurement = "> 100 µM"

[[record]]
molecule = "N#CC1=C(N)OC2=C(C(=O)CC(c3ccccc3)C2)C1c1ccc2ccccc2c1 (stereo not given)"
measurement = "> 100 µM"

[[record]]
molecule = "N#CC1=C(N)OC2=C(C(=O)CC(c3ccccc3)C2)C1c1cc(Br)cs1 (stereo not given)"
measurement = "> 100 µM"

[[record]]
molecule = "COc1ccc(C2C(C#N)=C(N)OC3=C2C(=O)CC(c2ccco2)C3)cc1OC(=O)N1CCOCC1 (stereo not given)"
measurement = "> 316 µM"

[[record]]
molecule = "COc1cccc(C2C(C#N)=C(N)OC3=C2C(=O)CC(c2ccccc2)C3)c1OC (stereo not given)"
measurement = "> 100 µM"

[[record]]
molecule = "N#CC1=C(N)OC2=C(C(=O)CC(c3ccccc3)C2)C1c1cccc2ccccc12 (stereo not given)"
measurement = "> 100 µM"

[[record]]
molecule = "N#CC1=C(N)OC2=C(C(=O)CC(c3ccccc3)C2)C1c1ccc([N+](=O)[O-])cc1 (stereo not given)"
measurement = "> 100 µM"

[[record]]
molecule = "N[C@@H](COS(=O)(=O)O)C(=O)O"
measurement = "100 µM"

